assay: modulators of glucocorticoid suppression of NF-kB, cell-based, luciferase, IL-1B stimulus, dexamethasone (AID 624486); settings: NF-kB luciferase reporter, IL-1B + dexamethasone, luminescence; measured here: IL-1B alone, no Dex
value kind: z-score

smiles str	result
Nc1c(C(=O)c2ccc(CCCN3CCOCC3)cc2)cnn1-c1ccc(F)cc1	0.435
CC(=O)N1CCC(Nc2ncc3cc(Oc4ccc(F)cc4F)c(=O)n(C)c3n2)CC1	0.13

// switching to the query compound
Entry under test: `CC(=O)Nc1cccc(C#Cc2cncnc2Nc2ccc(OCc3cccc(F)c3)c(Cl)c2)n1` . Its z-score was -2.19

---

assay: differential killing of epithelial or mesenchymal cells, primary screen, imaging, PC-3E GFP, TEM4-18 mCherry, co-culture (AID 1345086); details: imaging cell counts, measured here: epithelial PC-3E GFP cell survival, at 1 µM;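 also: cells exposed to compound for 72 h before imaging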
value kind: normalised cell number
Just the number, please, no unit after it.

Take a look at these entries with their results.
smiles str	normalised cell number
Nc1nc2c(ncn2COCCO)c(=O)[nH]1	1.01
c1ccc2[nH]c(-c3cscn3)nc2c1	0.98

// switching to the query molecule
Entry under test: `C=C(CC)C(=O)c1ccc(OCC(=O)O)c(Cl)c1Cl` . Its normalised cell number was 0.92

---

assay: modulators of glucocorticoid suppression of NF-kB, cell-based, luciferase, IL-1B stimulus, dexamethasone (AID 624486); conditions: NF-kB luciferase reporter, IL-1B + dexamethasone, luminescence; actives lie on both sides, concentration not given here;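 as to percent of negative control (+Dex): 100% = mean signal of vehicle control wells on the plate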
Could you label it label 1 if measured percent of negative control (+Dex) is 90% or higher, and label 0 otherwise?

smiles str	label class
CN(C)C(=O)O[C@@H]1CN[C@@H](C#Cc2cc3ncnc(Nc4ccc(OCc5cccc(F)c5)c(Cl)c4)c3s2)C1	label 0
Cn1cc(C2=C(c3cn(CCCCCSC(=N)N)c4ccccc34)C(=O)NC2=O)c2ccccc21	label 1
CS(=O)(=O)CCNCc1cc(-c2cc3c(Nc4ccc(OCc5cccc(F)c5)c(Cl)c4)ncnc3s2)cs1	label 0
CCn1c(=O)c(Oc2ccc(F)cc2F)cc2cnc(NC3CCOCC3)nc21	label 0
CCn1c(-c2nonc2N)nc2cncc(C(=O)N3CC[C@H](N)C3)c21	label 0

With those in mind, consider the next compound.
[Q] Check this compound for percent of negative control (+Dex) at or above 90%: `Cn1c(=O)c(Oc2ccc(F)cc2F)cc2cnc(NC(C)(C)CO)nc21`
[A] label 1

---

Listed here: items and their measured plate-normalised HSF1 focus index.
assay: modifiers of HSF1 nuclear foci, imaging, Selleck Cancer Library (AID 1347162); settings: human cells, at 10 µM; stronger effect = lower value
Just the number, please, no unit after it.

Take a look at these entries with their results.
smiles str	plate-normalised HSF1 focus index
NC(=O)c1ccc(-c2nc(-c3ccc4c(c3)OCO4)c(-c3ccccn3)[nH]2)cc1	1.06
CCn1c(-c2nonc2N)nc2cnc(Oc3cccc(NC(=O)c4ccc(OCCN5CCOCC5)cc4)c3)cc21	1.04

Entry under test: `O=C1c2c(O)ccc(O)c2C(=O)c2c(NCCNCCO)ccc(NCCNCCO)c21` . Its plate-normalised HSF1 focus index was 0.898

---

experiment: stimulators of insulin release from INS-1E, primary screen, cell-based, 5 mM glucose, NPC library (AID 1117329); details: rat INS-1E insulin secretion, at 10 µM, stronger effect = higher value
value kind: insulin secretion stimulation (%)
Respond with the bare value in %.

Take a look at these entries with their results.
compound	result units	insulin secretion stimulation
COc1cc2c(cc1OC)C(C(C(=O)N(CCc1ccc(OC)c(OC)c1OC)CCc1ccc(OC)c(OC)c1OC)c1ccccc1)=NCC2 (stereo not drawn)	%	-0.9
CCCCCCCCCCCCCCCCCCN(C)C	%	0.9
CC(=O)c1cc2ccccc2s1	%	-1.3
N=C(N)n1cccn1	%	9.4
CN(C)CCOC(c1ccc(Cl)cc1)c1ccccn1 (stereo not drawn)	%	46.5

Entry under test: NC(=O)NC1N=C([O][Al])NC1=O (stereo not drawn) . Its insulin secretion stimulation was 0.3

Entry under test: CC(C)CCCC(C)CCCC(C)CCCCC(C)CCCC(C)CCCC(C)C (stereo not drawn) . Its insulin secretion stimulation was -1.6

Entry under test: `COc1cc(/C=C/C(=O)O[C@H]2CC[C@]34C[C@]35CC[C@]3(C)[C@@H]([C@H](C)CCC=C(C)C)CC[C@@]3(C)[C@@H]5CC[C@H]4C2(C)C)ccc1O` . Its insulin secretion stimulation was 7.6

---

Listed here: items and their measured GLP1 secretion stimulation.
experiment: glucagon-like peptide 1 release enhancers, primary assay, NCI-H716 cell line, NPC library (AID 1117341); settings: NCI-H716 cells, at 10 µM, stronger effect = higher value
Respond with the bare value in %.

compound	result units	result number
CCOC(=O)[C@H](CCc1ccccc1)N[C@@H](C)C(=O)N(CC(=O)O)C1Cc2ccccc2C1	%	3.1

Entry under test: `CC1(C)O[C@@H]2C[C@H]3[C@@H]4CCC5=CC(=O)C=C[C@]5(C)[C@@]4(F)[C@@H](O)C[C@]3(C)[C@]2(C(=O)CO)O1` . Its GLP1 secretion stimulation was -1

Entry under test: `Nc1ccncc1N` . Its GLP1 secretion stimulation was 3.3

Entry under test: `Nc1nnnn1-c1ccccc1` . Its GLP1 secretion stimulation was 2.4

Entry under test: `CCCC(=O)O[C@]1(C(=O)CC)CC[C@H]2[C@@H]3CCC4=CC(=O)CC[C@]4(C)[C@H]3[C@@H](O)C[C@@]21C` . Its GLP1 secretion stimulation was 5.3

Entry under test: `CC(=O)OC[C@H]1O[C@@H](n2ncc(=O)[nH]c2=O)[C@H](OC(C)=O)[C@@H]1OC(C)=O` . Its GLP1 secretion stimulation was -0.6

Entry under test: `COC(=O)Nc1nc2ccc(C(=O)C3CC3)cc2[nH]1` . Its GLP1 secretion stimulation was -0.3

Entry under test: `CCCCCCCCCCCCCCCCCCO` . Its GLP1 secretion stimulation was 1.9

Entry under test: `C=CCNc1nc(NCC=C)nc(N2CCN(C(c3ccc(F)cc3)c3ccc(F)cc3)CC2)n1` . Its GLP1 secretion stimulation was -3.9

Entry under test: `CO/N=C(/C(=O)N[C@@H]1C(=O)N2C(C(=O)[O-])=C(C[n+]3ccn4ncccc43)CS[C@H]12)c1nsc(N)n1` . Its GLP1 secretion stimulation was -1.2

Entry under test: `O=C(O)c1ccccn1` . Its GLP1 secretion stimulation was 1.3

Entry under test: `CCC1(c2ccccc2)C(=O)NCNC1=O` . Its GLP1 secretion stimulation was -2

Entry under test: Oc1ccc(C(O)CNCCCCCCNCC(O)c2ccc(O)c(O)c2)cc1O (stereo not drawn) . Its GLP1 secretion stimulation was 4.5

Entry under test: `Cc1ccc(S(=O)(=O)NC(=O)NC2CCCC2)cc1` . Its GLP1 secretion stimulation was -0.4

Entry under test: `COc1cc(O)cc(O)c1` . Its GLP1 secretion stimulation was -9.8

Entry under test: C[C@H](N)C(=O)N[C@@H](C)C(=O)NC1[C@H]2CN(c3nc4c(cc3F)c(=O)c(C(=O)O)cn4-c3ccc(F)cc3F)C[C@@H]12 (stereo partly drawn) . Its GLP1 secretion stimulation was 0.7

Entry under test: `CCCOC(C(=O)OC1CCN(C)CC1)(c1ccccc1)c1ccccc1` . Its GLP1 secretion stimulation was 21.3

Entry under test: CC(=O)/C=C/C=C1/C2CCC(C2)C1(C)C (stereo not drawn) . Its GLP1 secretion stimulation was 0.1

---

experiment: inhibition of endothelial tube formation, primary screen, imaging, VEGF stimulated, CD31 staining, tube area, NPC library (AID 1117340); conditions: VEGF-stimulated ADSC/ECFC co-culture, at 10 µM, stronger effect = higher value
value kind: tube area decrease (%)
Respond with the bare value in %.

Take a look at these entries with their results.
compound	result units	tube area decrease
O=C(O)CC(O)C(=O)O (stereo unspecified)	%	1.8
c1ccc2sc(SN3CCOCC3)nc2c1	%	18.9
Nc1ncnc2c1ncn2Cc1c(F)cccc1Cl	%	-5
COC(=O)[C@H]1[C@H]2C[C@@H]3c4[nH]c5cc(OC)ccc5c4CCN3C[C@H]2C[C@@H](OC(=O)/C=C/c2ccc(O)c(OC)c2)[C@@H]1OC	%	21
NC(N)=NN=C(/C=C/c1ccc([N+](=O)[O-])o1)/C=C/c1ccc([N+](=O)[O-])o1	%	38.8
CCOC(=O)N1CCC(=C2c3ccc(Cl)cc3CCc3cccnc32)CC1	%	39.2
CC(=O)Nc1ccc(/C=N/NC(N)=S)cc1	%	-8.1
CCCCCCCCCCOCC(O)CN (stereo unspecified)	%	65

Entry under test: `CCOC(=O)C(=O)CCc1ccccc1` . Its tube area decrease was -7.2

Entry under test: `O=S(=O)(O)c1ccc2nc(-c3ccccc3)[nH]c2c1` . Its tube area decrease was -26.3

Entry under test: `O=Cc1ccc(O)c(O)c1O` . Its tube area decrease was 3.3
